runDescription: APR_HepG2_MitoMembPot_24hr: Apredica 24-hour HepG2 Assay for Mitochondrial Membrane Potential (AID 2282911)
conditionDescription: imaging, actives raise or lower the signal
Activity calls are given as the source filed them. Rule for the calls: active = hit-call score of the fitted dose curve at least 0.9, where 1 is the maximum; inactive = score below 0.9.
Labels: 1 = active, 0 = inactive

>>> print(df.to_string())
                                    compound  assignedlabel
 0                      O=c1ccc(=O)[nH][nH]1              0
 1                        CCCSP(=O)(OCC)SCCC              0
 2  CCC(CC)Nc1c([N+](=O)[O-])cc(C)c(C)c1[N+](=O)[O-]              1
 3                    CCCCSP(=O)(SCCCC)SCCCC              0
 4  CC(C)=CC1C(C(=O)OCN2C(=O)C3=C(CCCC3)C2=O)C1(C)C (stereo not drawn)              0
 5        COP(=O)(OC)SCn1c(=O)oc2cc(Cl)cnc21              0
 6                       CCOP(=S)(OCC)SCCSCC              0
 7     CN1COCN(Cc2cnc(Cl)s2)C1=N[N+](=O)[O-]              0
 8  CC(C)[C@H](C(=O)O[C@H](C#N)c1cccc(Oc2ccccc2)c1)c1ccc(Cl)cc1              0
 9  C#CCC1=C(C)C(OC(=O)C2C(C=C(C)C)C2(C)C)CC1=O (stereo not drawn)              0
10             CN(C)C(=O)Nc1cccc(C(F)(F)F)c1              0
11  CCCCOC(=O)[C@@H](C)Oc1ccc(Oc2ccc(C#N)cc2F)cc1              0
12  CN(C)[C@@H]1C(=O)C(C(N)=O)=C(O)[C@@]2(O)C(=O)C3=C(O)c4c(O)cccc4[C@@](C)(O)[C@H]3[C@H](O)[C@@H]12              0
13               CNC(=O)Oc1cccc2c1OC(C)(C)O2              0
14  CCCSP(=O)(OCC)Oc1ccc(Br)cc1Cl (stereo not drawn)              0
15   CCOP(=S)(OCC)Oc1ccc2c(C)c(Cl)c(=O)oc2c1              0
16                      Nc1nc(N)nc(NC2CC2)n1              0
17     CCCOCC(=Nc1ccc(Cl)cc1C(F)(F)F)n1ccnc1              0

* * *

runDescription: ATG_RORE_CIS: Attagene CIS-FACTORIAL HepG2 Assay for human RAR-related Orphan Receptor Element (RORE) (AID 2282959)
conditionDescription: HepG2 Attagene cis-factorial RORE reporter, mRNA; actives raise or lower the signal
Activity calls are given as the source filed them. Rule for the calls: active = hit-call score of the fitted dose curve at least 0.9, where 1 is the maximum; inactive = score below 0.9.
Outcomes: active, inactive

compound	assignedLabel
Nc1nc(N)nc(NC2CC2)n1	inactive
CC[C@H](C)[C@H]1O[C@]2(C=C[C@@H]1C)C[C@@H]1C[C@@H](C/C=C(\C)[C@@H](O[C@H]3C[C@H](OC)[C@@H](O[C@H]4C[C@H](OC)[C@@H](NC)[C@H](C)O4)[C@H](C)O3)[C@@H](C)/C=C/C=C3\CO[C@@H]4[C@H](O)C(C)=C[C@@H](C(=O)O1)[C@]34O)O2	inactive
CCCOc1nn(C(=O)NS(=O)(=O)c2ccccc2C(=O)OC)c(=O)n1C	inactive
CC(COc1ccc(Oc2ccccc2)cc1)Oc1ccccn1 (stereo not given)	active
O=c1ccc(=O)[nH][nH]1	inactive
COP(=O)(NC(C)=O)SC (stereo not given)	inactive
CCOC(=O)CC(SP(=O)(OC)OC)C(=O)OCC (stereo not given)	inactive
Nc1c(Cl)cc([N+](=O)[O-])cc1Cl	inactive
CCOP(=S)(OCC)OC(Cl)C(Cl)(Cl)Cl (stereo not given)	inactive
CCC(=O)Nc1ccc(Cl)c(Cl)c1	inactive
COP(=O)(OC)C(O)C(Cl)(Cl)Cl (stereo not given)	inactive
CCOP(=S)(OCC)SCCSCC	inactive
CCC(CC)Nc1c([N+](=O)[O-])cc(C)c(C)c1[N+](=O)[O-]	inactive
CCc1cccc(CC)c1N(COC)C(=O)CCl	inactive
CN(C)C(=O)Nc1cccc(C(F)(F)F)c1	inactive
CCCSP(=O)(OCC)SCCC	inactive
O=C(O)c1cc(Oc2ccc(C(F)(F)F)cc2Cl)ccc1[N+](=O)[O-]	inactive
CSc1nc(NC(C)C)nc(NC(C)C)n1	inactive
CNC(=O)ON=C(SC)C(=O)N(C)C	inactive
C#CC(C)(C)NC(=O)c1cc(Cl)cc(Cl)c1	inactive
